MIC values, listed per item
tested on: P. aeruginosa (ΔmexAB-oprM); assay: Broth microdilution MIC in iron-depleted CAMHB (IDM); type: cell-based; conditions: Pseudomonas aeruginosa; iron-depleted CAMHB (IDM); […]; read-out: Minimum inhibitory concentration, P. aeruginosa ΔmexAB-oprM

compound	assay result
O=C(O)c1c(F)ccc2c1OB(O)[C@@H](NC(=O)C(NC(=O)N1CCN(C3CCN(C(=O)c4cc(O)cc(O)c4)CC3)C(=O)C1=O)c1cc(F)c(O)c(O)c1Cl)C2 (some centres unmarked) [Example 309]	< 1 µg/mL

Consider now this further compound.
Identify measured MIC associated with O=C(NCCCN1CCN(C(=O)NC(C(=O)N[C@H]2Cc3ccc(F)c(C(=O)O)c3OB2O)c2cc(F)c(O)c(O)c2Cl)C(=O)C1=O)c1ccc(F)c(O)c1F (some centres unmarked) [Example 411]
< 1 µg/mL

====

target: A. baumannii PBP2 (Acinetobacter baumannii); test: Bocillin-FL competition binding via gel filtration, A. baumannii PBP2
Sequence (D0C8Z9 whole entry): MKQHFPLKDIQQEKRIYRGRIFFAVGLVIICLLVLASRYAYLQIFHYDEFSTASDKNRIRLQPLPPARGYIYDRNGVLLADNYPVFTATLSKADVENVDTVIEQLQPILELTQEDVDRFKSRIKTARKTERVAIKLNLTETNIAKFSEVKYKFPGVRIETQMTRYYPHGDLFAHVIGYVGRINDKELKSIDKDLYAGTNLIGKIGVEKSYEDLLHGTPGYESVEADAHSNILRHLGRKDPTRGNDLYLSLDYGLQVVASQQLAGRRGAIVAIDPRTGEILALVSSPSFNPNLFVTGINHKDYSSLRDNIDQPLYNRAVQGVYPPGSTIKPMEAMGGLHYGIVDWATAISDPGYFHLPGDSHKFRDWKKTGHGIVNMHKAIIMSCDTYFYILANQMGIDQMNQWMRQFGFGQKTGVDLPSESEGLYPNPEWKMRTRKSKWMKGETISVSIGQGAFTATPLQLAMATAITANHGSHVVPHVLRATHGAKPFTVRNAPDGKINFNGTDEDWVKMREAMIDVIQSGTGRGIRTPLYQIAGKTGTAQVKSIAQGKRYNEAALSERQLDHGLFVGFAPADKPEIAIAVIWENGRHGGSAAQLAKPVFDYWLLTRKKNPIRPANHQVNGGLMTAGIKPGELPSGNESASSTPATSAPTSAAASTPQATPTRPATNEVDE
pEC50: −log10 of the molar value.
readout label: pEC50

A selection of reference data follows.
molecule	pEC50
O=C(NCCCS(=O)(=O)N1CCN(C(=O)NC(C(=O)N[C@H]2Cc3ccc(F)c(C(=O)O)c3OB2O)c2cc(F)c(O)c(O)c2Cl)C1=O)c1ccccc1 (some centres unmarked)	4.30 to 5.00
O=C(O)c1c(F)ccc2c1OB(O)[C@@H](NC(=O)C(NC(=O)N1CCN(C3CCN(S(=O)(=O)c4cccc(O)c4)CC3)C(=O)C1=O)c1cc(F)c(O)c(O)c1Cl)C2 (some centres unmarked)	> 5.00
O=C(NCCCN1CCN(C(=O)N[C@@H](C(=O)N[C@H]2Cc3ccc(F)c(C(=O)O)c3OB2O)c2cc(F)c(O)c(O)c2Cl)C(=O)C1=O)c1ccncc1O	> 5.00
NCc1cc(O)cc(CN2CCC(N3CCN(C(=O)N[C@@H](C(=O)N[C@H]4Cc5ccc(F)c(C(=O)O)c5OB4O)c4cc(F)c(O)c(O)c4Cl)C3=O)CC2)c1 (single isomer, unassigned)	3.60 to 4.30

Consider now this further molecule.
Identify measured pEC50 associated with O=C(O)c1c(F)ccc2c1OB(O)[C@@H](NC(=O)[C@H](NC(=O)N1CCN(C3CCN(C(=O)c4cc(O)ccc4F)CC3)C1=O)c1cc(F)c(O)c(O)c1Cl)C2 (single isomer, unassigned)
> 5.00

====

Target: PBP3 from Pseudomonas aeruginosa (PAO1) (Pseudomonas aeruginosa, UniProt G3XD46)
Sequence (G3XD46 whole entry): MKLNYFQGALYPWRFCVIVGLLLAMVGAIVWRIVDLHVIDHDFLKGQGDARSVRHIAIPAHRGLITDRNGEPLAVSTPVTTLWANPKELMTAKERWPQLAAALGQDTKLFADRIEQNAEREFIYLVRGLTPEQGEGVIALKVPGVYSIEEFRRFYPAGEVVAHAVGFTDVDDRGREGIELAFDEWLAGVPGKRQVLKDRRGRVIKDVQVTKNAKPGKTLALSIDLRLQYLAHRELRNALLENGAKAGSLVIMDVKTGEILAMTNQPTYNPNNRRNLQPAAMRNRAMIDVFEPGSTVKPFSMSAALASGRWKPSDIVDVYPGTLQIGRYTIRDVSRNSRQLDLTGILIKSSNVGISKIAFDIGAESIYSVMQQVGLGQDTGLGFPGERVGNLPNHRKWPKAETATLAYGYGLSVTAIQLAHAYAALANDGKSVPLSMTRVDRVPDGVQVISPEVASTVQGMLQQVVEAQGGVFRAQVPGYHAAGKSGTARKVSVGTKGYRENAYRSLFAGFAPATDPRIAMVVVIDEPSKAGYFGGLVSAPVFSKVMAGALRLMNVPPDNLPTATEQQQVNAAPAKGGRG
Experiment: Bocillin-FL fluorescence polarization competition binding, P. aeruginosa PBP3
Conditions: Binding affinity to P. aeruginosa PBP3; fluorescence polarization competition binding assay using Bocillin-FL; read-out: P. aeruginosa PBP3 Potency
From the text: To determine the ability of boronic acid-based test PBP inhibitors to bind Penicillin Binding Proteins (PBPs), Bocillin-FL (fluorescently-labeled penicillin V; ThermoFisher Scientific) was used in a fluorescence polarization (FP) competition binding assay to assess inhibitor binding to PBP3 from Escherichia coli (K-12), PBP3 from Pseudomonas aeruginosa (PAO1), PBP1a and PBP3 from Acinetobacter baumannii (ATCC 19606), and PBP2 from Neisseria gonorrhoeae (FA19). […]
pIC50: −log10 of the molar value.
readout label: pIC50

A selection of reference data follows.
compound	tested target	pIC50
O=C(O)c1c(F)ccc2c1OB(O)[C@@H](NC(=O)[C@H](NC(=O)N1CCN(C3CCN(Cc4cccnc4)CC3)C1=O)c1cc(F)c(O)c(O)c1Cl)C2	PBP3 from Pseudomonas aeruginosa (PAO1) (Pseudomonas aeruginosa, UniProt G3XD46)	> 5.00
O=C(NCCN1CCN(C(=O)N[C@@H](C(=O)N[C@H]2Cc3ccc(F)c(C(=O)O)c3OB2O)c2cc(F)c(O)c(O)c2Cl)C(=O)C1=O)Nc1cccnc1	PBP3 from Pseudomonas aeruginosa (PAO1) (Pseudomonas aeruginosa, UniProt G3XD46)	> 5.00

Identify measured pIC50 associated with O=C(O)c1c(F)ccc2c1OB(O)[C@@H](NC(=O)[C@H](NC(=O)N1CCN(C3CCN(C(=O)Nc4c(F)ccc(O)c4Cl)CC3)C1=O)c1cc(F)c(O)c(O)c1Cl)C2 (single isomer, unassigned)
> 5.00
